Data credit: ChEMBL document CHEMBL1121910

- Test system: Cavia porcellus
- METHOD_SUMMARY: Relative ability to cause abortion in conscious guinea pigs compared to PGE-2.
- Format: functional
Recorded Relative potency by entry

{"columns": ["COMPOUND", "Relative potency"],
 "data": [
  ["CS(=O)(=O)NC(=O)CCC/C=C\\C[C@@H]1C(/C=C/[C@@H](O)COc2ccccc2)[C@H](O)C[C@@H]1O (stereo not given in full)", 1000],
  ["CS(=O)(=O)NC(=O)CCC/C=C\\C[C@H]1C(=O)C[C@@H](O)C1/C=C/[C@@H](O)COc1ccc(F)cc1 (stereo not given in full)", 3000],
  ["CS(=O)(=O)NC(=O)CCC/C=C\\C[C@H]1C(=O)C[C@@H](O)[C@@H]1/C=C/[C@@H](O)COc1ccccc1", 3000],
  ["CS(=O)(=O)NC(=O)CCC/C=C\\C[C@H]1C(=O)C[C@@H](O)C1/C=C/[C@@H](O)COc1cccc(Cl)c1 (stereo not given in full)", 1000],
  ["CCS(=O)(=O)NC(=O)CCC/C=C\\C[C@H]1C(=O)C[C@@H](O)C1/C=C/[C@@H](O)COc1ccccc1 (stereo not given in full)", 3000],
  ["CS(=O)(=O)NC(=O)CCC/C=C\\C[C@H]1C(=O)C[C@@H](O)C1/C=C/[C@@H](O)COc1cccs1 (stereo not given in full)", 300],
  ["CS(=O)(=O)NC(=O)CCC/C=C\\C[C@H]1C(=O)C=CC1/C=C/[C@@H](O)COc1ccccc1 (stereo not given in full)", "<100"],
  ["CS(=O)(=O)NC(=O)CCC/C=C\\CC1=C(/C=C/[C@@H](O)COc2ccccc2)CCC1=O", "<100"],
  ["O=C(O)CCC/C=C\\C[C@H]1C(=O)C[C@@H](O)C1/C=C/[C@@H](O)COc1ccccc1 (stereo not given in full)", 300],
  ["CS(=O)(=O)NC(=O)CCC/C=C\\C[C@H]1C(=O)C[C@@H](O)C1/C=C/[C@@H](O)CCc1ccccc1 (stereo not given in full)", "<100"]
]}

---

- Tested on: Canis familiaris
- METHOD_SUMMARY: Compound versus PGE-2 (0.1 ug/kg, iv) was tested for effects on blood pressure in anesthetized dogs; Depressor
- Type: functional, Canis lupus familiaris

{"columns": ["MOLECULE", "ASSAYED_SYSTEM", "Relative potency"],
 "data": [
  ["Cc1cccc(OC[C@H](O)/C=C/C2[C@H](O)CC(=O)[C@@H]2C/C=C\\CCCC(=O)NS(C)(=O)=O)c1 (some centres undefined)", "Canis familiaris", 0.5],
  ["CS(=O)(=O)NC(=O)CCC/C=C\\C[C@H]1C(=O)C[C@@H](O)[C@@H]1/C=C/[C@@H](O)COc1ccccc1 [SULPROSTONE]", "Canis familiaris", 0.5],
  ["CS(=O)(=O)NC(=O)CCC/C=C\\C[C@H]1C(=O)C[C@@H](O)C1/C=C/[C@@H](O)COc1ccc(Cl)cc1 (some centres undefined)", "Canis familiaris", 0.5],
  ["CCS(=O)(=O)NC(=O)CCC/C=C\\C[C@H]1C(=O)C[C@@H](O)C1/C=C/[C@@H](O)COc1ccccc1 (some centres undefined)", "Canis familiaris", 1]
]}

---

Recorded Relative potency by entry
- Species on record: Cavia porcellus
- METHOD_SUMMARY: Relative spasmogenic potency in an in vitro guinea pig uteri assay.
- Type: functional
EXPERIMENTAL_READOUT: Relative potency

{"columns": ["COMPOUND", "EXPERIMENTAL_READOUT", "OBS_VALUE"],
 "data": [
  ["CS(=O)(=O)NC(=O)CCC/C=C\\C[C@H]1C(=O)C[C@@H](O)C1/C=C/[C@@H](O)CCc1ccccc1 (stereo partly drawn)", "Relative potency", 75],
  ["CS(=O)(=O)NC(=O)CCC/C=C\\C[C@H]1C(=O)C[C@@H](O)C1/C=C/[C@@H](O)COc1ccc(Cl)cc1 (stereo partly drawn)", "Relative potency", 90],
  ["CCCCC(C)(C)[C@H](O)/C=C/C1[C@H](O)CC(=O)[C@@H]1C/C=C\\CCCC(=O)O (stereo partly drawn)", "Relative potency", 33]
]}

---

- Species: Cavia porcellus
- METHOD_SUMMARY: Relative spasmogenic potency in an in vitro guinea pig uteri assay.
- Type: functional

{"columns": ["MOLECULE", "Relative potency"],
 "data": [
  ["COc1ccc(OC[C@H](O)/C=C/C2[C@H](O)CC(=O)[C@@H]2C/C=C\\CCCC(=O)NS(C)(=O)=O)cc1 (stereo partly drawn)", 10],
  ["CS(=O)(=O)NC(=O)CCC/C=C\\C[C@H]1C(=O)C[C@@H](O)C1/C=C/[C@@H](O)COc1cccs1 (stereo partly drawn)", 50],
  ["CS(=O)(=O)NC(=O)CCC/C=C\\C[C@@H]1C(/C=C/[C@@H](O)COc2ccccc2)[C@H](O)C[C@@H]1O (stereo partly drawn)", 10],
  ["O=C(O)CCC/C=C\\C[C@H]1C(=O)C[C@@H](O)C1/C=C/[C@@H](O)COc1ccccc1 (stereo partly drawn)", 75],
  ["CS(=O)(=O)NC(=O)CCC/C=C\\C[C@H]1C(=O)C[C@@H](O)C1/C=C/[C@@H](O)COc1ccc(F)cc1 (stereo partly drawn)", 120],
  ["CS(=O)(=O)NC(=O)CCC/C=C\\C[C@H]1C(=O)C[C@@H](O)C1/C=C/[C@@H](O)COc1cccc(Cl)c1 (stereo partly drawn)", 46],
  ["O=C(CCC/C=C\\C[C@H]1C(=O)C[C@@H](O)C1/C=C/[C@@H](O)COc1ccccc1)NS(=O)(=O)c1ccccc1 (stereo partly drawn)", 5],
  ["CS(=O)(=O)NC(=O)CCC/C=C\\C[C@H]1C(=O)C=CC1/C=C/[C@@H](O)COc1ccccc1 (stereo partly drawn)", 0.2]
]}

---

- Test system: Cavia porcellus
- METHOD_SUMMARY: Relative ability to cause abortion in conscious guinea pigs compared to PGE-2.
- Assay type: functional

{"columns": ["COMPOUND", "ASSAYED_SYSTEM", "Relative potency"],
 "data": [
  ["Cc1cccc(OC[C@H](O)/C=C/C2[C@H](O)CC(=O)[C@@H]2C/C=C\\CCCC(=O)NS(C)(=O)=O)c1 (stereo partly drawn)", "Cavia porcellus", "<1000"],
  ["CS(=O)(=O)NC(=O)CCC/C=C\\C[C@H]1C(=O)C[C@@H](O)C1/C=C/[C@@H](O)COc1cccc(C(F)(F)F)c1 (stereo partly drawn)", "Cavia porcellus", "<100"],
  ["CCCCC(C)(C)[C@H](O)/C=C/C1[C@H](O)CC(=O)[C@@H]1C/C=C\\CCCC(=O)O (stereo partly drawn)", "Cavia porcellus", "<100"],
  ["CCCCC[C@H](O)/C=C/[C@H]1[C@H](O)CC(=O)[C@@H]1C/C=C\\CCCC(=O)O", "Cavia porcellus", 100],
  ["O=C(CCC/C=C\\C[C@H]1C(=O)C[C@@H](O)C1/C=C/[C@@H](O)COc1ccccc1)NS(=O)(=O)c1ccccc1 (stereo partly drawn)", "Cavia porcellus", 1000],
  ["CS(=O)(=O)NC(=O)CCC/C=C\\C[C@H]1C(=O)C[C@@H](O)C1/C=C/[C@@H](O)COc1ccc(Cl)cc1 (stereo partly drawn)", "Cavia porcellus", 10000],
  ["COc1ccc(OC[C@H](O)/C=C/C2[C@H](O)CC(=O)[C@@H]2C/C=C\\CCCC(=O)NS(C)(=O)=O)cc1 (stereo partly drawn)", "Cavia porcellus", "< 1000"],
  ["COc1cccc(OC[C@H](O)/C=C/C2[C@H](O)CC(=O)[C@@H]2C/C=C\\CCCC(=O)NS(C)(=O)=O)c1 (stereo partly drawn)", "Cavia porcellus", "<1000"]
]}

---

- Species: Cavia porcellus
- METHOD_SUMMARY: Relative spasmogenic potency in an in vitro guinea pig uteri assay.
- Type: functional
Rule for this label: TRUE means Relative potency is less than 1; FALSE means Relative potency is at least 1.

{"columns": ["COMPOUND", "CATEGORY"],
 "data": [
  ["Cc1cccc(OC[C@H](O)/C=C/C2[C@H](O)CC(=O)[C@@H]2C/C=C\\CCCC(=O)NS(C)(=O)=O)c1 (some centres not stated)", "FALSE"],
  ["CCS(=O)(=O)NC(=O)CCC/C=C\\C[C@H]1C(=O)C[C@@H](O)C1/C=C/[C@@H](O)COc1ccccc1 (some centres not stated)", "FALSE"],
  ["CS(=O)(=O)NC(=O)CCC/C=C\\CC1=C(/C=C/[C@@H](O)COc2ccccc2)CCC1=O", "FALSE"],
  ["CCCCC[C@H](O)/C=C/[C@H]1[C@H](O)CC(=O)[C@@H]1C/C=C\\CCCC(=O)O", "FALSE"],
  ["CS(=O)(=O)NC(=O)CCC/C=C\\C[C@H]1C(=O)C[C@@H](O)C1/C=C/[C@@H](O)COc1cccc(C(F)(F)F)c1 (some centres not stated)", "TRUE"],
  ["CS(=O)(=O)NC(=O)CCC/C=C\\C[C@H]1C(=O)C[C@@H](O)[C@@H]1/C=C/[C@@H](O)COc1ccccc1", "FALSE"]
]}
